Test: Pharmacokinetics in ADHD model rats after gavage of JYPs
Format: in vivo, SHR rats (ADHD model)
Conditions: male, SHR, rat, plasma, 2.16 g/kg/day; ADHD model rats, oral JYPs medium dose 2.160 g/kg/d (2nd of 3 values)
Measure: Cmax (ng/mL)
Respond with the bare value in ng/mL.

Known results for compounds:
C[C@H]1O[C@@H](O[C@H]2CC[C@@]3(C)[C@@H](CC[C@]4(C)[C@@H]3C=C[C@]35OC[C@@]6(CCC(C)(C)C[C@H]63)[C@H](O)C[C@]54C)[C@]2(C)CO)[C@H](O)[C@@H](O[C@@H]2O[C@H](CO)[C@@H](O)[C@H](O)[C@H]2O)[C@H]1O | 33.1
C[C@H]1O[C@@H](O[C@H]2CC[C@@]3(C)[C@@H](CC[C@]4(C)[C@@H]3C=C[C@]35OC[C@@]6(CCC(C)(C)C[C@H]63)[C@@H](O)C[C@]54C)[C@]2(C)CO)[C@H](O)[C@@H](O[C@@H]2O[C@H](CO)[C@@H](O)[C@H](O)[C@H]2O)[C@H]1O | 53

So what does the record say about Cmax for CCC/C=C1\OC(=O)C2=C1CCC=C2 [Z-Ligustilide] ?
5.57
